system: SNB-75; assay: NCI tumour cell line growth inhibition, 48 h
Calls of active or inactive are those of the source. Rule as the data show it: active = GI50 up to about 1.1 µM and inactive = higher.
Entry note: the call must match one of active, inactive

Please review the following examples before continuing.
{"columns": ["compound", "qualitative.label"],
 "data": [
  ["CC(=O)Nc1ccc(/C=C/C(=O)c2sc(-n3nc(-c4ccccc4)cc3-c3ccccc3)nc2C)cc1", "inactive"],
  ["CC(=O)O[C@@]12[C@@H]3O[C@@]4(O)C[C@]5(C)[C@H]6C[C@@](C(C)C)(O[C@H]5c5ccoc5)O[C@H]1[C@]6(C4)O[C@]2(O)C(C)=CC3(C)C", "inactive"],
  ["Cc1c(N)nc([C@H](CC(N)=O)NC[C@H](N)C(N)=O)nc1C(=O)N[C@H](C(=O)N[C@H](C)[C@@H](O)CC(=O)N[C@H](C(=O)NC(O[C@@H]1O[C@@H](C)[C@@H](N)[C@@H](O)[C@H]1O)C(O)c1nc(-c2nc(C(=O)NCCCCN)cs2)cs1)[C@@H](C)O)[C@@H](O[C@@H]1O[C@@H](CO)[C@@H](O)[C@H](O)[C@@H]1O[C@H]1O[C@H](CO)[C@@H](O)[C@H](OC(N)=O)[C@@H]1O)c1c[nH]cn1 (stereo partly drawn)", "inactive"],
  ["COc1ccc(NC(=O)CC(=O)NN2C(=O)/C(=C/c3ccc(N(CCC#N)CCC#N)cc3C)N=C2/C=C\\c2ccccc2)cc1", "inactive"],
  ["O=c1[nH]nc(Cc2ccccc2)n1/N=C/c1c[nH]c2ccccc12", "inactive"]
]}

Tell me the recorded outcome of this test for Cc1cc2c(cc1CO)N1Cc3cc(C)c(CO)cc3N(C2)C1 .
inactive

Recorded test outcome, item COc1ccc(/C=C2/CCCC/C2=N/O)cc1
inactive

Fill in: this test's call for COC(=O)C1=C(c2ccc3c(c2)OCO3)OC(c2ccc3c(c2)OCO3)C1 (stereo not drawn) is ___
inactive

Can you look up the reported call for CCNC(=O)COc1ccc(Br)cc1Br for me?
inactive

Lab log entry: O=S(O)CCCCCSSc1ccccc1 — outcome as called in the assay?
inactive

Assay result, entry CC(=N\N=C\c1ccccn1)/C(C)=N/N=C(C)/C(C)=N/N=C/c1ccccn1 — outcome?
inactive

For CC(C)(C)c1ccc2c(c1)OP1(Oc3cccc4cccnc34)(O2)Oc2ccc(C(C)(C)C)cc2O1 , what call appears in the results of this test?
inactive

Outcome? COc1cc(CC(C(=O)O)C(=O)O)c(OC)cc1CC(C(=O)O)C(=O)O
inactive

Query: recorded result category for COC(=O)c1cc(O)c(O)c(O)c1-c1c(O)c(O)c(O)c(SC[C@H](NC(=O)OCc2ccccc2)C(=O)OCc2ccccc2)c1C(=O)OC in this test
inactive

---

system: HCT-15
observable: GI50

{"columns": ["compound", "target.or.system", "assay.result"],
 "data": [
  ["Cn1/c(=N\\N=C(\\CNCCO)[C@@H](O)[C@@H]2OC(c3ccccc3)OC[C@H]2O)sc2ccccc21 (stereo partly specified)", "HCT-15", "25.5 µM"],
  ["O=P(O)(O)OC1O[C@H](CO)[C@H](O)[C@H](O)[C@H]1O (stereo partly specified)", "HCT-15", "> 100 µM"],
  ["CC(C)OP(=O)(OC(C)C)/C(=N/Nc1ccc([N+](=O)[O-])cc1)NCCN/C(=N\\Nc1ccc([N+](=O)[O-])cc1)P(=O)(OC(C)C)OC(C)C", "HCT-15", "4.61 µM"],
  ["CC1=C(C(=O)Nc2ccc(C)cc2)C(c2cccc([N+](=O)[O-])c2)C(C(=O)Nc2ccc(C)cc2)=C(C)N1", "HCT-15", "26.2 µM"],
  ["O=c1[nH]n(Cc2ccccc2CCl)c2ccc([N+](=O)[O-])cc12", "HCT-15", "60.8 µM"]
]}

According to the records, this compound O=C1OC(c2ccccc2)=N/C1=C/C=C/c1ccco1 displays GI50 of > 100 µM

For NCC(=O)OCN1C(=O)C2C3C=CC(C2C1=O)C1C2C(=O)N(COC(=O)CN)C(=O)C2C31 (stereo unspecified) the compound record lists GI50 as 19.1 µM

GI50 for O=C1/C(=C/c2cccc([N+](=O)[O-])c2)N=C(c2ccccc2)N1c1ccc2c(c1)Sc1cc(N3C(=O)/C(=C/c4cccc([N+](=O)[O-])c4)N=C3c3ccccc3)ccc1N2 is > 100 µM

Entry NC(CCC(=O)Nc1ccc(O)cc1)C(=O)O (stereo unspecified) , GI50 reported as > 100 µM

GI50 measured on NCCNCc1c2ccccc2c(CNCCN)c2ccccc12 = 38 µM

Measured GI50, C=CCOCn1cnc2c(=O)[nH]c(N)nc21 : > 100 µM

Entry CC(=O)OC1CCC2(C)C(CCC3C4CC=C(C5(C)OCCO5)C4(C)CCC32)C1 (stereo unspecified) ; GI50 = 27.2 µM

The values you see were collected from ChEMBL document CHEMBL1201862.
